Would you kindly list cytotoxicity at 70.5 h for each of these compounds?
- EXPERIMENT_DESCRIPTION: Human HepG2 cell viability assay in 384 well format
- Assay type: toxicity, cell-based
- Design: dose 125 nL, time 70.5 hour; concentration not given beside the values
- EXPERIMENTAL_PARAMETERS: HepG2 cells, read-out: Inhibition
The number alone won't do; follow it with the unit.

Reported cytotoxicity at 70.5 h ( COc1ccc(Cl)cc1CC(=O)N1CCN(CCO)CC1 ) = 12.5%

Reported cytotoxicity at 70.5 h ( CN(C)c1nccc(CNS(=O)(=O)c2cc(Cl)cc(Cl)c2)n1 ) = -1.35%

Reported cytotoxicity at 70.5 h ( Cc1cc(C)n(C2CCCN(C(=O)c3ccc4c(c3)COC4)C2)n1 (centres undefined) ) = 1.09%

Reported cytotoxicity at 70.5 h ( CCCc1cc(CN(C)C2CSCCSC2)n[nH]1 ) = -6.5%

Reported cytotoxicity at 70.5 h ( COc1cccc(C(=O)N2CC[C@@H]3[C@H](CC2)N(C)CCS3(=O)=O)c1 ) = -5.98%

Reported cytotoxicity at 70.5 h ( CN(C)C(=O)[C@H]1CCS(=O)(=O)[C@@H]2CN(c3ncccn3)C[C@H]12 ) = -4.18%

Reported cytotoxicity at 70.5 h ( CNS(=O)(=O)CC1CCCN1C(=O)c1ccc2cc[nH]c2c1 (centres undefined) ) = -7.71%

Reported cytotoxicity at 70.5 h ( Cc1cc(C2CCC2)nc(NCC(C)(C)N2CCCC2)n1 ) = -16.9%

Reported cytotoxicity at 70.5 h ( CC(Cn1cccn1)NCCCc1nc(-c2cccs2)no1 (centres undefined) ) = 1.95%

Reported cytotoxicity at 70.5 h ( COCC(=O)N1CC[C@@H]2CN(Cc3cccnc3)S(=O)(=O)[C@@H]2CC1 ) = -2.46%

Reported cytotoxicity at 70.5 h ( Cn1c(=O)[nH]c(=O)c2c1nc1n2CC(c2ccc(Cl)cc2)O1 (centres undefined) ) = 43%

Reported cytotoxicity at 70.5 h ( O=C(COC1CCCC1)NCCCn1nc2ccccn2c1=O ) = -16.2%

Reported cytotoxicity at 70.5 h ( CCn1cc(Cl)c(C(=O)NCCCN(C)C)n1 ) = -7.78%

Reported cytotoxicity at 70.5 h ( Cc1cnn(CCNCc2csc(C)n2)c1 ) = -5.62%

Reported cytotoxicity at 70.5 h ( COC[C@@H]1CCC[C@@]12CN(Cc1ccco1)CCO2 ) = -15.7%

Reported cytotoxicity at 70.5 h ( Cc1cccn2c(=O)cc(CN3CCCC3Cn3cccn3)nc12 (centres undefined) ) = -1.74%

Reported cytotoxicity at 70.5 h ( COCC1COCCC12CCN(CCc1ccccc1)CC2 (centres undefined) ) = -0.938%

Reported cytotoxicity at 70.5 h ( CC(C)c1nc2n(n1)CC(NCc1nc(-c3ccsc3)no1)CC2 (centres undefined) ) = -11.5%

Reported cytotoxicity at 70.5 h ( CN(C)CC(=O)N1CCC2(CC1)COCCN(Cc1ccncc1)C2 ) = -8.72%

Reported cytotoxicity at 70.5 h ( CC(C)N(C)[C@@H]1CCN(C(=O)[C@H]2CCCO2)[C@H]1Cc1cnn(C)c1 ) = -4.8%

Reported cytotoxicity at 70.5 h ( O=c1oc(-c2ccc(F)cc2)nn1CN1CCN(C2CCCC2)CC1 ) = -9.32%

Reported cytotoxicity at 70.5 h ( CCCS(=O)(=O)N1C[C@@H]2CN(Cc3cccs3)CCO[C@@H]2C1 ) = -14.7%

Reported cytotoxicity at 70.5 h ( c1cc(NCc2ccsc2)cc(-c2nnc[nH]2)c1 ) = 1.3%

Reported cytotoxicity at 70.5 h ( O=C(NCCc1coc(-c2ccccc2)n1)NC1CC1 ) = 20.2%
